Data credit: patent US8785459B2

measurementTarget: B-Raf (V600E) (Homo sapiens (Human), UniProt P15056, V600E)
Sequence (P15056 whole entry V600E): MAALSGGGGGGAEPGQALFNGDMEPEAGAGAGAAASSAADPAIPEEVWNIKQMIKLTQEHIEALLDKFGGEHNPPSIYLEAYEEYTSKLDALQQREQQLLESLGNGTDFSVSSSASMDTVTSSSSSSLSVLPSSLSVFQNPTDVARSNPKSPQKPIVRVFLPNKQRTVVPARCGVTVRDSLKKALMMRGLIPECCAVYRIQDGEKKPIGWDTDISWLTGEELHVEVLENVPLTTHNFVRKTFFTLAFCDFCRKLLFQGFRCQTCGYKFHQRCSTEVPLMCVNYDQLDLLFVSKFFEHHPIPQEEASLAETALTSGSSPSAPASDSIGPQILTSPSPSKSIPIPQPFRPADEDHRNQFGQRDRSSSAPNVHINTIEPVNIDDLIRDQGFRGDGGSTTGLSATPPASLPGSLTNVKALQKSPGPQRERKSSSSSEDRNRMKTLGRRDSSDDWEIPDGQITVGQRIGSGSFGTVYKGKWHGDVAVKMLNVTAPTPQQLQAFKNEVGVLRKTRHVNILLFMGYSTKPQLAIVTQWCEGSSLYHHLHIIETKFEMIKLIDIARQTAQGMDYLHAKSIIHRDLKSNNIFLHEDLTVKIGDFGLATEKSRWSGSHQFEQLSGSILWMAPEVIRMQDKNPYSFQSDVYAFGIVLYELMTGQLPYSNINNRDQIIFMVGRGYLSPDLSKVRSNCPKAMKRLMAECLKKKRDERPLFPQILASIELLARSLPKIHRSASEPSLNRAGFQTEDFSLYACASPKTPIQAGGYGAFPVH
methodDescription: Raf kinase assay (B-Raf (V600E)), [33P] incorporation into MEK1(K97R)
Type: biochemical
The following compounds are listed with their measured IC50 values.
Report as a plain number; the unit nM is understood.

The cases that follow already have their IC50 on record.
N#Cc1cccc(-c2ccc3ncnc(Nc4cccc5[nH]ncc45)c3c2)c1 = 199
Clc1ccc(-c2ccc3ncnc(Nc4cccc5[nH]ncc45)c3c2)cc1 = 289

## Task # query: IC50 of entry `COc1cc(-c2ccc3ncnc(Nc4cccc(C(N)=O)c4)c3c2)ccc1O`
## Result 290

## Task Queued: `COc1cc(-c2ccc3nccc(Nc4cccc(O)c4)c3c2)ccc1O`
## Result 23

## Task Queued: `COc1cc(-c2ccc3ncnc(Nc4cccc5c4cnn5C)c3c2)ccc1O`
## Result 451

## Task Queued: `COc1cc(-c2ccc3ncnc(Nc4ccc(Cl)c(O)c4)c3c2)ccc1O`
## Result 37.5

## Task Queued: `N#Cc1cccc(-c2ccc3nccc(Nc4cccc5[nH]ncc45)c3c2)c1`
## Result 123

## Task Queued: `COc1cc(-c2ccc3ncnc(Nc4cccc(NC(C)=O)c4)c3c2)ccc1O`
## Result 382

## Task Queued: `COc1cc(-c2ccc3ncnc(Nc4ccccc4F)c3c2)ccc1O`
## Result 633

* * *

The following compounds are listed with their measured IC50 values.
measurementTarget: C-Raf (Homo sapiens (Human), UniProt P04049)
Sequence (P04049 whole entry): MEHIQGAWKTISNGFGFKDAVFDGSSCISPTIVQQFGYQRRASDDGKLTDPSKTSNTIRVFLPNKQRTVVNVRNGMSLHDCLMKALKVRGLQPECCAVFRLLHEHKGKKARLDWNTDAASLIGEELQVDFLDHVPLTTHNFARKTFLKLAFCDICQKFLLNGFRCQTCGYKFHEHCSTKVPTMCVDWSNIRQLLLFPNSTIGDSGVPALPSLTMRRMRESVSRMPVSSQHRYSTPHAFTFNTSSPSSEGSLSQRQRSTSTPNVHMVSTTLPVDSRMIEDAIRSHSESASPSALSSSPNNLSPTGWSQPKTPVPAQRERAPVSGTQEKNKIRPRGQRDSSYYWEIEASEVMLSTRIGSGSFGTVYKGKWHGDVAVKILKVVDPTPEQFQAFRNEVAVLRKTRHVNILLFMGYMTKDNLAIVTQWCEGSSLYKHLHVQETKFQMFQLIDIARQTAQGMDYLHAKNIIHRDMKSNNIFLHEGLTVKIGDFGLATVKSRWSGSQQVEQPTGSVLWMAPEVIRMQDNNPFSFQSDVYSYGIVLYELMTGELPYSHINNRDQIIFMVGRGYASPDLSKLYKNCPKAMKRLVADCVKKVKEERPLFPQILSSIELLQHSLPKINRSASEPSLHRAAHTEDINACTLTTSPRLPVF
methodDescription: Raf kinase assay (C-Raf), [33P] incorporation into MEK1(K97R)
Type: biochemical
Report as a plain number; the unit nM is understood.

COc1cc(-c2ccc3ncnc(Nc4cccc(OC(F)F)c4)c3c2)ccc1O = 988
Oc1cccc(-c2ccc3ncnc(Nc4cccc5[nH]ncc45)c3c2)c1 = 1960
NS(=O)(=O)c1ccc(-c2ccc3ncnc(Nc4cccc5[nH]ncc45)c3c2)cc1 = 677

Next compound, IC50 to be filled in.
## Task Recorded IC50 for `COc1ccc(-c2ccc3ncnc(Nc4cccc5[nH]ncc45)c3c2)cc1C` with C-Raf (Homo sapiens (Human), UniProt P04049), please?
## Result 1860

* * *

The following compounds are listed with their measured IC50 values.
measurementTarget: B-Raf (V600E) (Homo sapiens (Human), UniProt P15056, V600E)
methodDescription: Raf kinase assay (B-Raf (V600E)), [33P] incorporation into MEK1(K97R)
Assay type: biochemical
Report as a plain number; the unit nM is understood.

The cases that follow already have their IC50 on record.
COc1cccc(-c2ccc3ncnc(Nc4cccc5[nH]ncc45)c3c2)c1F = 139
COc1cccc(-c2ccc3nccc(Nc4cccc5[nH]ncc45)c3c2)c1F = 99.9
COc1cc(-c2ccc3ncnc(Nc4cccc(S(N)(=O)=O)c4)c3c2)ccc1O = 453
COc1cc(-c2ccc3nccc(Nc4cc(O)ccc4F)c3c2)ccc1O = 20.9
COc1cc(-c2ccc3ncnc(Nc4ccc(C)cc4F)c3c2)ccc1O = 619

## Task # query: IC50 of entry `COc1cc(-c2ccc3ncnc(Nc4ccc(C)c(O)c4)c3c2)ccc1O`
## Result 212

## Task Queued: `COc1cccc(-c2ccc3ncnc(Nc4cccc5[nH]ncc45)c3c2)c1`
## Result 472

## Task Queued: `Fc1ccccc1-c1ccc2ncnc(Nc3cccc4[nH]ncc34)c2c1`
## Result 255

## Task Queued: `COc1cc(-c2ccc3nccc(Nc4cc(NS(C)(=O)=O)ccc4F)c3c2)ccc1O`
## Result 4280

## Task Queued: `Oc1c(F)ccc(Nc2ncnc3ccc(-c4ccc(Cl)cc4)cc23)c1F`
## Result 216

## Task Queued: `COc1cc(-c2ccc3ncnc(Nc4ccc(C(=O)O)cc4O)c3c2)ccc1O`
## Result 572

## Task Queued: `COc1cc(-c2cc3c(Nc4cc(O)ccc4Cl)ncnc3cc2OC)ccc1O`
## Result 47.3

## Task Queued: `COc1cc(-c2ccc3ncnc(Nc4c(F)cccc4F)c3c2)ccc1O`
## Result 706

## Task Queued: `Oc1c(F)ccc(Nc2ncnc3ccc(-c4ccc5[nH]ncc5c4)cc23)c1F`
## Result 4.5

## Task Queued: `CS(=O)(=O)c1ccc(-c2ccc3nccc(Nc4cccc5[nH]ncc45)c3c2)cc1`
## Result 119

* * *

Tested on: A549
methodDescription: Anti-proliferative activity, CellTiter-96 assay, A549
Format: cell-based
protocolConditions: Homo sapiens, A549 cells, 72 hours incubation
Procedure: Antiproliferative Activity The anti-proliferative activities of the compounds with formula (I) and formula (II) with respect to four human cancer cell lines (A549, A375, MDA-MB-231, and COLO205) were measured using the CellTiter™-96 assay kit (Promega) following the manufacturer's instructions. […] Cell viability was determined by measuring absorbance at 490 nm using EMax® microplate reader (Molecular Devices). Data were processed and analyzed using GraphPad Prism version 4.
The following compounds are listed with their measured IC50 values.
Report as a plain number; the unit µM is understood.

The cases that follow already have their IC50 on record.
COc1cc(-c2ccc3ncnc(Nc4cc(O)c(Cl)cc4Cl)c3c2)ccc1O = 1.6
Oc1ccc(-c2ccc3ncnc(Nc4cccc(O)c4)c3c2)cc1 = 3.7
COc1cccc(-c2ccc3nccc(Nc4cccc5[nH]ncc45)c3c2)c1F = 25.1
COc1cc(-c2ccc3ncnc(Nc4cc(O)ccc4F)c3c2)ccc1O = 0.5
COc1cc(-c2ccc3ncnc(Nc4cc(O)ccc4C)c3c2)ccc1O = 0.9

## Task # query: IC50 of entry `COc1cc(-c2ccc3ncnc(Nc4ccc(F)c(O)c4F)c3c2)ccc1O`
## Result 2.4

* * *

Tested on: COLO205
methodDescription: Anti-proliferative activity, CellTiter-96 assay, COLO205
Type: cell-based
protocolConditions: Homo sapiens, COLO 205, COLO205 cells, 72 hours incubation
pIC50: −log10 of the molar value.
Rule: pIC50 under 5 gives false, otherwise true.

Below are worked cases with known answers.
COc1cc(-c2ccc3ncnc(Nc4cc(O)c(F)cc4F)c3c2)ccc1O = true
COc1ccc(-c2ccc3ncnc(Nc4cccc(O)c4)c3c2)cc1 = false
COc1cc(-c2ccc3ncnc(Nc4cc(O)ccc4C)c3c2)ccc1O = true
Oc1cc(Nc2ncnc3ccc(-c4ccc(Cl)cc4)cc23)c(F)cc1F = false
COc1cc(-c2ccc3ncnc(Nc4cccc5[nH]nc(Cl)c45)c3c2)ccc1O = false

## Task Reported pIC50 at or above 5? `COc1cc2ncnc(Nc3cccc(O)c3)c2cc1-c1ccc(N)cc1`
## Result false

## Task Queued: `COc1cc(-c2cc3c(Nc4cccc(O)c4)ncnc3cc2OC)ccc1O`
## Result false

## Task Queued: `COc1cc2ncnc(Nc3cccc(O)c3)c2cc1-c1ccc(O)cc1`
## Result false

## Task Queued: `COc1cc(-c2ccc3ncnc(Nc4cc(O)ccc4Cl)c3c2)ccc1O`
## Result true

* * *

Tested on: A549
methodDescription: Anti-proliferative activity, CellTiter-96 assay, A549
Type: cell-based
protocolConditions: Homo sapiens, A549 cells, 72 hours incubation
Field: class. Source value: IC50. Ranges: L: < 3 µM; M: ≥ 3 µM and < 9 µM; H: ≥ 9 µM

Below are worked cases with known answers.
COc1cc2ncnc(Nc3cccc(O)c3)c2cc1-c1ccc(N)cc1 = M
Oc1c(F)ccc(Nc2ncnc3ccc(-c4ccc5[nH]ncc5c4)cc23)c1F = H
CS(=O)(=O)c1ccc(-c2ccc3nccc(Nc4cccc5[nH]ncc45)c3c2)cc1 = H
Oc1cccc(Nc2ncnc3ccc(-c4ccccc4)cc23)c1 = H
COc1cc(-c2ccc3nccc(Nc4cccc5[nH]ncc45)c3c2)ccc1O = M
COc1ccc(-c2ccc3nccc(Nc4cccc5[nH]ncc45)c3c2)cc1C=O = M
Oc1ccc(-c2ccc3nccc(Nc4cccc5[nH]ncc45)c3c2)cc1 = M
COc1cc(-c2ccc3ncnc(Nc4cc(O)c(Cl)cc4F)c3c2)ccc1O = L
Fc1ccc(-c2ccc3ncnc(Nc4cccc5[nH]ncc45)c3c2)cc1F = H
COc1cc(-c2cc3c(Nc4cc(O)ccc4Cl)ncnc3cc2OC)ccc1O = L

Please examine the following record next.
## Task Please let me know in which category the item `COc1cc(-c2ccc3ncnc(Nc4ccc(F)c(O)c4)c3c2)ccc1O` belongs.
## Result L

* * *

The following compounds are listed with their measured IC50 values.
System: COLO205
methodDescription: Anti-proliferative activity, CellTiter-96 assay, COLO205
Format: cell-based
protocolConditions: Homo sapiens, COLO 205, COLO205 cells, 72 hours incubation
Report as a plain number; the unit µM is understood.

The cases that follow already have their IC50 on record.
COc1cc(-c2ccc3ncnc(Nc4ccc(F)c(O)c4F)c3c2)ccc1O = 5.1
COc1cc(-c2ccc3nccc(Nc4cccc(O)c4)c3c2)ccc1O = 5.2
N#Cc1cccc(-c2ccc3nccc(Nc4cccc5[nH]ncc45)c3c2)c1 = 2.6
COc1cc(-c2ccc3ncnc(Nc4ccc(F)c(O)c4)c3c2)ccc1O = 5.2
COc1cc(-c2ccc3ncnc(Nc4cccc(O)c4)c3c2)ccc1O = 6.7
c1cc(Nc2ncnc3ccc(-c4ccc5c(c4)OCO5)cc23)c2cn[nH]c2c1 = 13

## Task Recorded IC50 for `COc1cc(-c2ccc3ncnc(Nc4ccc(F)cc4)c3c2)ccc1O` with COLO205, please?
## Result 11.8

## Task Queued: `COc1cc(-c2ccc3ncnc(Nc4cccc(O)c4Cl)c3c2)ccc1O`
## Result 6.8

## Task Queued: `COc1cc(-c2ccc3nccc(Nc4cc(O)ccc4F)c3c2)ccc1O`
## Result 21.1
